The values you see were collected from paper PMC5354820.

- methodSummary: Pharmacokinetics in cynomolgus monkeys
- Type: in vivo
- conditionDetails: cynomolgus monkey, plasma; monkeys, oral 5 mg/kg
parameterMeasured: AUC(0-inf) (ng·h/mL)
All answers are understood in ng·h/mL, so give the number only.

input: // returns reported AUC(0-inf) for input CNCc1ccc(-c2cc3cc(F)cc(C(N)=O)c3o2)cc1
output: 576

---

- methodSummary: MPH concentrations and PK in plasma and xenografts, MDA-MB-436 xenograft model
- Format: in vivo, nude mice
- conditionDetails: nude, mouse, plasma, po, 80 mg/kg, plasma, 80 mg/kg single oral dose; read-out: Tmax
parameterMeasured: Tmax

input: Which Tmax value belongs to CNCc1ccc(-c2cc3cc(F)cc(C(N)=O)c3o2)cc1 ?
output: 2 h
